assay: Selectivity ratio of IC50 for CK1-delta to IC50 for CK1-gamma2
Reported endpoint: Ratio IC50
Form rule: numeric answer, no unit written next to it.

Consider the reported Ratio IC50 for these compounds:
Smiles notation: COc1cnc(COc2ccc(F)cc2F)cc1-c1cc2c([nH]1)CCNC2=O
Ratio IC50: 12

Smiles notation: COc1cnc(COc2ccc(F)cc2C)cc1-c1cc2c([nH]1)CCNC2=O
Ratio IC50: 20

Smiles notation: COc1cnc(COc2ccc(F)c(F)c2)cc1-c1cc2c([nH]1)CCNC2=O
Ratio IC50: 8

Respond only with Ratio IC50 recorded for `COc1cnc(-c2cnc3ccccc3c2)nc1-c1cc2c([nH]1)CCNC2=O` 8

----------
// values below are reported fraction unbound
experiment: Plasma protein binding in mouse; assay type: ADME, cell-free; conditions: read-out: PPB (converted)
Form rule: numeric answer, no unit written next to it.

Smiles notation: COc1cnc(COc2cc(F)c(F)cc2C)cc1-c1cc2c([nH]1)CCNC2=O
fraction unbound: 0.008

We next turn to a different compound, shown below.
Respond only with fraction unbound recorded for `COc1cnc(COc2ccc(F)c(F)c2)cc1-c1cc2c([nH]1)CCNC2=O` 0.049

----------
assay: Intrinsic clearance in human liver microsomes at 1 uM after 30 mins; type: ADME, Microsome; conditions: read-out: CLH
// values below are reported microsomal CLint at 1 µM

Smiles notation: COc1cnc(COc2ccc(F)c(F)c2)cc1-c1cc2c([nH]1)CCNC2=O
microsomal CLint at 1 µM: 59 µL/min/mg

Respond only with microsomal CLint at 1 µM recorded for `COc1cnc(COc2cc(F)c(F)cc2C)cc1-c1cc2c([nH]1)CCNC2=O` 177 µL/min/mg

----------
target: Casein kinase I isoform alpha (Homo sapiens); assay: Inhibition of CK1-alpha using biotin[long chain]-KKRRRAL{pS}VATLPGL substrate in presence of 8 uM ATP
Sequence (P48729 whole entry, canonical isoform): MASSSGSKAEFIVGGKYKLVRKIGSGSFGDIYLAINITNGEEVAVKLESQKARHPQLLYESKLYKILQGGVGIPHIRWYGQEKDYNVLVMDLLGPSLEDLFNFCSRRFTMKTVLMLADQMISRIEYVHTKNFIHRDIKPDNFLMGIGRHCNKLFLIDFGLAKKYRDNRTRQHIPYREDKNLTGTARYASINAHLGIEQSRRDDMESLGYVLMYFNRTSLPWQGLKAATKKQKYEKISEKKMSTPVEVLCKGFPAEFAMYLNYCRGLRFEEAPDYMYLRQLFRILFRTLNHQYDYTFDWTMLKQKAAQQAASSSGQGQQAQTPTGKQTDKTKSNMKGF
// values below are reported pIC50
Note on pIC50: it is the negative log10 of concentration, concentration in mol/L.

Respond only with pIC50 recorded for `COc1cnc(COc2ccc(F)cc2C)cc1-c1cc2c([nH]1)CCNC2=O` 6.35

----------
target: Casein kinase I isoform gamma-2 (Homo sapiens, UniProt P78368); assay: Inhibition of CK1-gamma2 in human RKO cell assessed as inhibition of Wnt3a-induced Wnt signaling treated 1 hr prior to Wnt3a ligand addition measured after 18 to 24 hrs by luciferase reporter gene assay
Sequence (P78368 whole entry, canonical isoform): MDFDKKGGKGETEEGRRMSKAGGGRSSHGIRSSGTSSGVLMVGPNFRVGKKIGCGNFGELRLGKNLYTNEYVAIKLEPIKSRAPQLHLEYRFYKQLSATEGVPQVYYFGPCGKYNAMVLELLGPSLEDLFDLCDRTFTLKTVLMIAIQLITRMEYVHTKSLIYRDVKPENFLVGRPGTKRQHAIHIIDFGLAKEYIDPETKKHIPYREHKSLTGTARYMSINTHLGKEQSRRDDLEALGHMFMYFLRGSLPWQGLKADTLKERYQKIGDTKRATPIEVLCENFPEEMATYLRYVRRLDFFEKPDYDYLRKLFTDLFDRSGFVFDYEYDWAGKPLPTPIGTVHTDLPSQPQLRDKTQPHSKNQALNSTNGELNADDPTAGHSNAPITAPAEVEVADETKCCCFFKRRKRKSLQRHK
// values below are reported IC50

Respond only with IC50 recorded for `COc1cnc(COc2ccc(F)cc2)cc1-c1cc2c([nH]1)CCNC2=O` 584 nM

Respond only with IC50 recorded for `COc1cnc(-c2cnc3ccccc3c2)nc1-c1cc2c([nH]1)CCNC2=O` > 3330 nM

Respond only with IC50 recorded for `COc1cnc(COc2cc(F)c(F)cc2C)cc1-c1cc2c([nH]1)CCNC2=O` 44 nM

Respond only with IC50 recorded for `COc1cnc(COc2ccc(F)cc2C)cc1-c1cc2c([nH]1)CCNC2=O` 537 nM

Respond only with IC50 recorded for `COc1cnc(COc2ccc(F)c(F)c2)cc1-c1cc2c([nH]1)CCNC2=O` 254 nM

Respond only with IC50 recorded for `COc1cnc(COc2ccc(F)cc2F)cc1-c1cc2c([nH]1)CCNC2=O` 394 nM

----------
assay: Plasma concentration in HEK-293 cells xenografted in nude mouse at 50 mg/kg, po after 6 hrs; assay type: ADME, organism-based, HEK293; design: dose 50 mg/kg, route oral
Reported endpoint: concentration at 6 h
Please provide the amount together with its unit, number first.

Respond only with concentration at 6 h recorded for `COc1cnc(COc2ccc(F)c(F)c2)cc1-c1cc2c([nH]1)CCNC2=O` 2.7 µM
